TARGET DESC: T1, human CD8A-Fc (in house) (human, UniProt P01732 22-182, limits assumed)
T1 construct: captured by goat anti-human Fc on the ProteOn chip; also called hCD8A-Fc; recombinant human CD8 alpha; not shown: linker/tag and Fc of human IgG1
T1 sequence (P01732 22-182 limits assumed): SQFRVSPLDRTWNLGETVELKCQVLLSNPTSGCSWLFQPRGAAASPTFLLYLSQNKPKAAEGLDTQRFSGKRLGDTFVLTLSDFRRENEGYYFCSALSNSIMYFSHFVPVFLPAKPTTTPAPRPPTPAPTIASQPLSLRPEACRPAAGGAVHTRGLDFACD
PROTOCOL: SPR (ProteOn), captured hCD8A-Fc
QUANTITY MEASURED: koff (s⁻¹)

BINDER: P283DR9P1364_A4 (designed binder, FN3 domain) LPAPKNLVVSRVTEDSARLSWTAPDAAFDSFYIAYPEWPVQGEAIVLTVPGSERSYDLTGLKPGTEYFVIIYGVKGGDWSEPLSAIFTT
koff, s⁻¹: 0.00109
//
BINDER: P283ER9P1365_A7 (designed binder, FN3 domain) LPAPKNLVVSRVTEDSARLSWTAPDAAFDSFYIPYWESEVYGEAIALPVPGSERSYDLTGLKPGTEYQVSIIGVKGGVYSQPLAAIFTT
koff, s⁻¹: 0.000786

I: P283ER9P1365_A1 (designed binder, FN3 domain) LPAPKNLVVSRVTEDSARLSWTAPDAAFDSFGIAYVEWWHRGEAISLPVPGSERSYDLTGLKPGTEYNVIITGVKGGIPSHPLGAIFTT
II: P283DR9P1364_B1 (designed binder, FN3 domain) LPAPKNLVVSRVTEDSARLSWTAPDAAFDSFYITYPEIPLGGEAIVLTVPGSERSYDLTGLKPGTEYFVVIYGVKGGLLSSPLSAIFTT
Ask | Param pair: I , II . Output: the one whose koff is numerically greater. Please reply using the label of the selected record.
Reply | II
(II: 0.00156 s⁻¹, I: 0.000467 s⁻¹)
